Every entry's value here was drawn from ChEMBL document CHEMBL1961873.

target-entity: Serine/threonine-protein kinase DCLK2 (Homo sapiens) (UniProt Q8N568);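 further: each value is a mean percent inhibition of DCLK2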
Sequence (Q8N568 whole entry): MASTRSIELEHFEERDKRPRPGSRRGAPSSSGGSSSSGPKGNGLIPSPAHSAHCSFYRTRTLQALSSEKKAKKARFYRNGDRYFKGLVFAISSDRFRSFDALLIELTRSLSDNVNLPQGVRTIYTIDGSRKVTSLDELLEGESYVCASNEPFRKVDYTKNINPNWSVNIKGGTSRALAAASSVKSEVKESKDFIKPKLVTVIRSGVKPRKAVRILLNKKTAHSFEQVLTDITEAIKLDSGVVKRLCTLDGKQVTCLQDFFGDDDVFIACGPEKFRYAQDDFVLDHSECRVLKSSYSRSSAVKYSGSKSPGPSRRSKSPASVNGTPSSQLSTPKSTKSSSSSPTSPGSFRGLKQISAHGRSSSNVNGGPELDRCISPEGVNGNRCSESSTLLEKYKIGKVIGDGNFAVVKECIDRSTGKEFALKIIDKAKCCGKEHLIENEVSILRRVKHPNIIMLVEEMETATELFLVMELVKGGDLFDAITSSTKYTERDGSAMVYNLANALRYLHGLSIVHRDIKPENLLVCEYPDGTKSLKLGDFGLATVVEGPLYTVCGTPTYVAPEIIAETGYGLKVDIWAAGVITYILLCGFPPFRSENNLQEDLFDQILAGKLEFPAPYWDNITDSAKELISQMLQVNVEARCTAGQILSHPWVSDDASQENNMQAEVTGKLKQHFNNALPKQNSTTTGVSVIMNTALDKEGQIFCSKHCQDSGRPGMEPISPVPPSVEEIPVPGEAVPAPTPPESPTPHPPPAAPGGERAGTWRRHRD
recorded-conditions: at 1 µM
experimental-readout: inhibition (%)
One number for each entry, in %.

Would you please look over these solved cases?
>>> recorded_number("COC(=O)Nc1nc2ccc(Sc3ccc(NC(=O)Nc4cc(C(F)(F)F)ccc4F)cc3)cc2[nH]1")
0.05
>>> recorded_number("CN(c1ccc(NC(=O)Nc2c(Cl)cccc2Cl)cc1)c1ccnc(Nc2cccc(CS(C)(=O)=O)c2)n1")
4.12
>>> recorded_number("Fc1ccc(-c2ncn(C3CCNCC3)c2-c2ccnc(Oc3ccc4c(c3)OCO4)n2)cc1")
2.26
>>> recorded_number("CS(=O)(=O)CCNCc1cc(-c2cc3c(Nc4ccc(OCc5cccc(F)c5)c(Cl)c4)ncnc3s2)cs1")
1.12
>>> recorded_number("COc1ccc2ncn(-c3cc(O[C@H](C)c4ccccc4Cl)c(C(N)=O)s3)c2c1")
-2.8

For each of the molecules below, state inhibition.
1. CCc1cccc(CC)c1/C=C/c1cncc(C(=O)NC)c1
2. O=C(Nc1n[nH]c2nc(-c3ccc(O)cc3)c(Br)cc12)C1CC1
3. COc1cc(N2CCN(C(C)C)CC2)ccc1Nc1nc(Nc2ccc(F)cc2C(=O)NC[C@@H](O)CO)c2cc[nH]c2n1
4. C[C@@H](Oc1cc(-n2cnc3ccc(OC4CCN(C)CC4)cc32)sc1C(N)=O)c1ccccc1Cl
5. COc1cc2ncn(-c3cc(OCc4ccccc4C(F)(F)F)c(C(C)=O)s3)c2cc1OC
6. COc1cccc(/C=N/Nc2ncnc3c2cnn3-c2cccc(OC)c2)c1

1.19
3.55
-4.14
-1.54
1.3
1.93

Parameter requested: inhibition. Apply to each item below.
1. COc1cc(Nc2ncc(-c3ccccc3)o2)cc(OC)c1OC
2. O=C(Nc1ccc(Oc2ccc3[nH]c(NC(=O)c4ccccc4)nc3c2)cc1)Nc1cc(C(F)(F)F)ccc1F
3. COc1ccc(-c2ccc3c(NC(=O)C4CC4)n[nH]c3n2)cc1

1: 1.6; 2: -0.03; 3: 2.41

---

target-entity: cAMP-dependent protein kinase catalytic subunit PRKX (Homo sapiens) (UniProt P51817);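 further: values are mean percent inhibition of PRKX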
Sequence (P51817 whole entry): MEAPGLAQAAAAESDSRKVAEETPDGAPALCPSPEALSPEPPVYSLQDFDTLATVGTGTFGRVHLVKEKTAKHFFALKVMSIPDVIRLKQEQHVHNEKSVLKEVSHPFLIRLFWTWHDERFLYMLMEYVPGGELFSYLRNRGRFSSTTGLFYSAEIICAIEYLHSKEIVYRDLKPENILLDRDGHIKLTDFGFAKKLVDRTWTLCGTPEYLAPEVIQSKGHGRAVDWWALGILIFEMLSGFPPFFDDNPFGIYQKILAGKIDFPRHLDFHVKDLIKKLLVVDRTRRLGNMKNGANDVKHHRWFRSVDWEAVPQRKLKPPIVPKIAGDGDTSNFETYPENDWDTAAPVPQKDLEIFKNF
recorded-conditions: at 0.1 µM
experimental-readout: inhibition (%)
One number for each entry, in %.

>>> recorded_number("CN(C)CCOc1ccc(-c2cc(-c3ccc4c(c3)CCC4=NO)c(-c3ccncc3)o2)cc1")
-0.21

Provide each entry's inhibition from the list below.
1. CS(=O)(=O)CCNCc1ccc(-c2ccc3ncnc(Nc4ccc(OCc5ccccc5)c(Br)c4)c3c2)o1
2. NC(=O)Cc1ccccc1Oc1nccc(-c2c(-c3ccc(F)cc3)ncn2C2CCNCC2)n1
3. COc1ccc2cc(-c3c(-c4ccncc4)nc(-c4ccc(S(C)(=O)=O)cc4C)n3C)ccc2c1
4. O=C1Nc2ccccc2/C1=C/Nc1ccc(-n2cncn2)cc1
5. COc1ccc2cc(-c3c(-c4ccncc4)nc(-c4ccc([S+](C)[O-])cc4C)n3C)ccc2c1 (stereo not drawn)

1. 2.17
2. -0.25
3. 5.93
4. 2.56
5. 0.49

---

Kindly supply the reported inhibition values for the records listed here.
target-entity: RAC-gamma serine/threonine-protein kinase (Homo sapiens) (UniProt Q9Y243)
Sequence (Q9Y243 whole entry): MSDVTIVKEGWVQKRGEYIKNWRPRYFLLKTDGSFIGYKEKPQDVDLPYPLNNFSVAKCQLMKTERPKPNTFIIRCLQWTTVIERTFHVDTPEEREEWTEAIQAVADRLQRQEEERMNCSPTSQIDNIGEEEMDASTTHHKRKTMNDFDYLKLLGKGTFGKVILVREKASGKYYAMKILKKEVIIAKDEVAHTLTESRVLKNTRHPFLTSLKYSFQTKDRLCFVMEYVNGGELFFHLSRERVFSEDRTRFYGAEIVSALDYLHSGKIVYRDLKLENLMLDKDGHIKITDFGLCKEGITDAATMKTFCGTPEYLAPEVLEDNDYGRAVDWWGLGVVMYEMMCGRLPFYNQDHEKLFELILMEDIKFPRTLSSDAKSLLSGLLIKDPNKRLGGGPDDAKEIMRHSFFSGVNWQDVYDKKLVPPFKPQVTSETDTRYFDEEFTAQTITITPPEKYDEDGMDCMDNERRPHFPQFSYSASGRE
recorded-conditions: at 1 µM
Description: GSK_PKIS: AKT3 mean inhibition at 1 uM [Nanosyn]

>>> result("COc1cc2ncn(-c3cc(OCc4cccs4)c(C(N)=O)s3)c2cc1OC")
"-3.04%"

Could I get inhibition for every one of these entries?
1. COc1cc(C)c(N(C)C(=O)CN(C)C)cc1Nc1nc(Nc2cccc(F)c2C(N)=O)c2cc[nH]c2n1
2. Fc1ccc(-c2ncn(C3CCNCC3)c2-c2ccnc(Oc3ccc4c(c3)OCO4)n2)cc1
3. Clc1ccc(CNc2nccc(-c3cnn4ncccc34)n2)cc1
4. CN(C)CCCNc1nccc(-c2c(-c3ccc(F)cc3)nn3cc(C(F)(F)F)ccc23)n1
5. CCN(CC)Cc1ccc(Nc2nccc(-c3cnn4ncccc34)n2)cc1

1: -1.39%; 2: 3.88%; 3: 1.14%; 4: -2.29%; 5: -1.26%
